The measurements presented in this section are drawn from paper PMC6520522.

Listing: concentration at 8 h of selected molecules
# test.summary: Feces levels of TPPU and metabolites after single oral dose in rats
# Format: in vivo
# condition.info: male, Sprague Dawley, feces; 8h post dose; rat; single oral dose 10 mg/kg TPPU; n = 3
endpoint.label: concentration at 8 h (ng/mL)

> print(dat)
                                   molecule  endpoint.value
1  O=C(O)CC(=O)N1CCC(NC(=O)Nc2ccc(OC(F)(F)F)cc2)CC1               3
2  CCC(=O)N1CCC(NC(=O)Nc2ccc(OC(F)(F)F)cc2)CC1             1.8
3  CC(O)C(=O)N1CCC(NC(=O)Nc2ccc(OC(F)(F)F)cc2)CC1 (centres unmarked)             3.7
4        O=C(Nc1ccc(OC(F)(F)F)cc1)NC1CCNCC1             3.6
5  O=C(Nc1ccc(OC(F)(F)F)cc1)NC1CCN(C(=O)CCO)CC1             4.3

###

# test.summary: Feces levels of TPPU and metabolites after single oral dose in rats
# Format: in vivo
# condition.info: male, Sprague Dawley, feces; 12h post dose; rat; single oral dose 10 mg/kg TPPU; n = 3
Response key: 1 means concentration at 12 h >= 2 ng/mL; -1 means concentration at 12 h < 2 ng/mL.

> print(dat)
                                   compound  label
1  CCC(=O)N1CCC(NC(=O)Nc2ccc(OC(F)(F)F)cc2)CC1 [TPPU]      1
2  O=C(O)CC(=O)N1CCC(NC(=O)Nc2ccc(OC(F)(F)F)cc2)CC1 [Compound M4]     -1
3  O=C(Nc1ccc(OC(F)(F)F)cc1)NC1CCN(C(=O)CCO)CC1 [Compound M2]      1
4  CC(O)C(=O)N1CCC(NC(=O)Nc2ccc(OC(F)(F)F)cc2)CC1 (centres unmarked) [Compound M1]      1
5  O=C(Nc1ccc(OC(F)(F)F)cc1)NC1CCNCC1 [Compound M3]      1

###

# test.summary: Feces levels of TPPU and metabolites after single oral dose in rats
# Format: in vivo
# condition.info: male, Sprague Dawley, feces; 24h post dose; rat; single oral dose 10 mg/kg TPPU; n = 3
Listing: concentration at 24 h of selected molecules
endpoint.label: concentration at 24 h

> print(dat)
                                   molecule         endpoint.label  endpoint.value
1  CC(O)C(=O)N1CCC(NC(=O)Nc2ccc(OC(F)(F)F)cc2)CC1 (centres unmarked) [Compound M1]  concentration at 24 h       1.1 ng/mL
2  O=C(Nc1ccc(OC(F)(F)F)cc1)NC1CCN(C(=O)CCO)CC1 [Compound M2]  concentration at 24 h       6.7 ng/mL
3  O=C(O)CC(=O)N1CCC(NC(=O)Nc2ccc(OC(F)(F)F)cc2)CC1 [Compound M4]  concentration at 24 h       2.2 ng/mL
4  O=C(Nc1ccc(OC(F)(F)F)cc1)NC1CCNCC1 [Compound M3]  concentration at 24 h       1.1 ng/mL
5  CCC(=O)N1CCC(NC(=O)Nc2ccc(OC(F)(F)F)cc2)CC1 [TPPU]  concentration at 24 h       1.9 ng/mL
